Assay: Therapeutic index, ratio of CC50 for human MT4 cells to EC50 for HIV1 3B
Assay type: cell-based
Settings: read-out: Ratio CC50/EC50

molecule	selectivity ratio
COc1ccc(CNC(=O)C2C(=O)N(O)C(=O)c3ccccc32)cc1 (stereo unspecified)	6.7
COc1ccc(CCNC(=O)C2C(=O)N(O)C(=O)c3ccccc32)cc1OC (stereo unspecified)	> 1.8
O=C(Nc1ccccc1)C1C(=O)N(O)C(=O)c2ccccc21 (stereo unspecified)	21.3
COc1ccc(CNC(=O)C2C(=O)N(O)C(=O)c3ccccc32)c(OC)c1 (stereo unspecified)	6.5
O=C(Nc1ccc(F)cc1)C1C(=O)N(O)C(=O)c2ccccc21 (stereo unspecified)	65.4
O=C(NCc1ccc(F)cc1)C1C(=O)N(O)C(=O)c2ccccc21 (stereo unspecified)	86.3

----------
Test: Cytotoxicity against human MT4 cells by MTT assay
Type: cell-based
// reported CC50 per item

molecule	CC50
COc1ccc(CCNC(=O)C2C(=O)N(O)C(=O)c3ccccc32)cc1OC (centres undefined)	> 125 µM
O=C1NC(=O)C(C(=O)NCc2ccc(F)cc2)c2ccccc21 (centres undefined)	> 250 µM
Cc1nnc(C(=O)NC(C)(C)c2nc(C(=O)NCc3ccc(F)cc3)c(O)c(=O)n2C)o1	> 8 µM
CN1C(=O)c2ccccc2C(C(=O)NCc2ccc(F)cc2)C1=O (centres undefined)	> 250 µM
Cc1ccc(CNC(=O)C2C(=O)N(O)C(=O)c3ccccc32)cc1 (centres undefined)	> 125 µM
O=C(NCc1ccc(O)cc1O)C1C(=O)N(O)C(=O)c2ccccc21 (centres undefined)	> 125 µM
O=C(NCc1ccc(F)cc1)C1C(=O)N(O)C(=O)c2ccccc21 (centres undefined)	202 µM
O=C(NCc1ccccc1)C1C(=O)N(O)C(=O)c2ccccc21 (centres undefined)	130 µM
O=C(Nc1ccc(F)cc1)C1C(=O)N(O)C(=O)c2ccccc21 (centres undefined)	114 µM
